FYI, the data here is from ChEMBL document CHEMBL3044734.

tested on: Gaeumannomyces tritici; experiment: Antimicrobial activity against Gaeumannomyces graminis var. tritici assessed as colony diameter at 0.01 ug/plug after 3 days ( Rvb = 1.40+/- 0.8 cm); type: functional
recorded-metric: Activity (cm)
Record the value in cm, omitting the unit from your answer.

# Activity measured on Gaeumannomyces tritici for item C/C=C/CC(C)C(=O)c1c(O)c(OC)c(OC)[nH]c1=O (centres undefined) [HARZIANOPYRIDONE] = 0.98

The value of Activity recorded for C/C=C/C=C/CC1=C(CC(C)=O)C(=O)OC1 [T39BUTENOLIDE] when tested on Gaeumannomyces tritici reads 1.2

Gaeumannomyces tritici data for C/C=C/C=C/C1=CC2=CC(=O)[C@](C)(OC(=O)[C@H](C)O)C(=O)C2=CO1 [T22AZAPHILONE] ; its Activity: 1.18

GET /values?item= C/C=C/C=C/CC1=C(CC(C)O)C(=O)OC1 (centres undefined) [HARZIANOLIDE] &system= Gaeumannomyces tritici returns Activity: 1.05

====

system: Globisporangium ultimum; test: Antimicrobial activity against Pythium ultimum assessed as colony diameter at 100 ug/plug after 3 days ( Rvb = 8.50 cm); format: functional
For each of the molecules below, state its Activity.
Write the number in cm without appending the unit.

The molecule C/C=C/CC(C)C(=O)c1c(O)c(OC)c(OC)[nH]c1=O (centres undefined) showed Activity equal to 7.9

molecule C/C=C/C=C/CC1=C(CC(C)=O)C(=O)OC1 [T39BUTENOLIDE] , Activity observed: 8.05

Note to self: Activity recorded for C/C=C/C=C/CC1=C(CC(C)O)C(=O)OC1 (centres undefined) [HARZIANOLIDE] was 8.5

What the record says about `C/C=C/C=C/C1=CC2=CC(=O)[C@](C)(OC(=O)[C@H](C)O)C(=O)C2=CO1` : Activity is 0

====

system: Globisporangium ultimum; experiment: Antimicrobial activity against Pythium ultimum assessed as colony diameter at 10 ug/plug after 3 days ( Rvb = 8.50 cm); assay type: functional
Task for the reader: assign each of the following compounds its reported Activity.
Write your answer as a measured quantity: the number, then the unit.

Measured Activity (Globisporangium ultimum), entry C/C=C/C=C/CC1=C(CC(C)=O)C(=O)OC1 [T39BUTENOLIDE] : 8.5 cm

C/C=C/C=C/CC1=C(CC(C)O)C(=O)OC1 (centres undefined) [HARZIANOLIDE] on Globisporangium ultimum gives Activity = 8.5 cm

# lookup: C/C=C/C=C/C1=CC2=CC(=O)[C@](C)(OC(=O)[C@H](C)O)C(=O)C2=CO1 [T22AZAPHILONE] on Globisporangium ultimum, Activity = 5.2 cm

Tested on Globisporangium ultimum: C/C=C/CC(C)C(=O)c1c(O)c(OC)c(OC)[nH]c1=O (centres undefined) [HARZIANOPYRIDONE] . Observed Activity: 8.5 cm

====

system: Rhizoctonia solani; test: Antimicrobial activity against Rhizoctonia solani assessed as colony diameter at 0.01 ug/plug after 3 days ( Rvb = 2.95 +/- 0.11 cm); type: functional
recorded-metric: Activity

Let me check: `C/C=C/C=C/C1=CC2=CC(=O)[C@](C)(OC(=O)[C@H](C)O)C(=O)C2=CO1` , system Rhizoctonia solani, measured Activity is 2.9 cm

Bench note, Rhizoctonia solani: C/C=C/C=C/CC1=C(CC(C)O)C(=O)OC1 (centres undefined) [HARZIANOLIDE] , Activity reads 2.8 cm

Per the reported Rhizoctonia solani data, C/C=C/CC(C)C(=O)c1c(O)c(OC)c(OC)[nH]c1=O (centres undefined) has Activity of 2.73 cm

Note to self: Activity of C/C=C/C=C/CC1=C(CC(C)=O)C(=O)OC1 [T39BUTENOLIDE] with Rhizoctonia solani was 2.73 cm
